- System: TNF-induced death of C57BL/6 mice
- measurement_description: TNF-induced mouse lethality assay
- Format: in vivo
- experimental_conditions: C57BL/6 mice, pre-treated p.o., TNF + D-galactosamine
property_label: survival rate of mice compared to the control group

>>> result("COc1c(-c2cc(F)ccc2F)oc2cc(Cl)ccc2c1=O")
"increased"
>>> result("O=c1c(O)c(-c2cc(F)ccc2F)oc2cc(Cl)ccc12")
"increased"
>>> result("COc1ccc2c(=O)c(O)c(-c3cc(F)cc(F)c3)oc2c1")
"increased"
>>> result("O=C(O)c1c(-c2ccc(OCCOc3ccc(-c4oc5cc(Cl)ccc5c(=O)c4C(=O)O)c(F)c3)cc2F)oc2cc(Cl)ccc2c1=O")
"increased"
>>> result("COc1ccc2c(=O)c(OC)c(-c3ccc(F)cc3F)oc2c1")
"increased"
>>> result("O=C(O)c1c(-c2cc(F)ccc2F)[nH]c2cc(Cl)ccc2c1=O")
"increased"
>>> result("COc1c(-c2cc(F)cc(F)c2)oc2cc(F)ccc2c1=O")
"increased"

---

Listing: Survival (%) of selected compounds
- System: TNF-induced death of C57BL/6 mice
- measurement_description: TNF-induced mouse lethality assay
- Format: in vivo
- experimental_conditions: C57BL/6 male mice, 20 or 40 mg/kg p.o. 30 min before hTNF 8 μg/kg + D-galactosamine 700 mg/kg i.p., 24 hours
property_label: Survival (%)

>>> result_number("O=C(O)c1c(-c2cc(F)ccc2F)[nH]c2cc(Cl)ccc2c1=O [Example 2]")
60
>>> result_number("COc1ccc2c(=O)c(O)c(-c3cc(F)cc(F)c3)oc2c1 [Example 39]")
40

---

- measured_on: TNF-TNFR2 (Homo sapiens, UniProt P01375)
- Sequence (P01375 77-233 limits assumed): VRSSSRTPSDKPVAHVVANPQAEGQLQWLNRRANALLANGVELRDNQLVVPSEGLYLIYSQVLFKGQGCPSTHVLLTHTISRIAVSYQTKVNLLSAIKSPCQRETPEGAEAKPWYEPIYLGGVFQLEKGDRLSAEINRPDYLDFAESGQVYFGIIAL
property_label: IC50 (µM)

>>> result_number("O=C(O)c1c(-c2ccc(OCCOc3ccc(-c4oc5cc(Cl)ccc5c(=O)c4C(=O)O)c(F)c3)cc2F)oc2cc(Cl)ccc2c1=O")
3.92

---

Measured Survival (%), listed per entry for reference.
- Tested on: TNF-induced death of C57BL/6 mice
- measurement_description: TNF-induced mouse lethality assay
- Format: in vivo
- experimental_conditions: C57BL/6 male mice, 20 or 40 mg/kg p.o. 30 min before hTNF 8 μg/kg + D-galactosamine 700 mg/kg i.p., 24 hours
Marks after values point to notes of the source that are not given here.
property_label: Survival (%)

>>> result("COc1ccc2c(=O)c(OC)c(-c3ccc(F)cc3F)oc2c1")
"40 * %"
>>> result("O=c1c(O)c(-c2cc(F)ccc2F)oc2cc(Cl)ccc12")
"90 *** %"
>>> result("O=C(O)c1c(-c2ccc(OCCOc3ccc(-c4oc5cc(Cl)ccc5c(=O)c4C(=O)O)c(F)c3)cc2F)oc2cc(Cl)ccc2c1=O")
"50 * %"
>>> result("COc1c(-c2cc(F)cc(F)c2)oc2cc(F)ccc2c1=O")
"60 ** %"
